Test system: Rattus norvegicus
Assay: Antiinflammatory activity in Sprague-Dawley rat assessed as inhibition of carrageenan-induced paw edema at 50 mg/kg, ip treated 60 mins before carrageenan challenge measured after 180 mins
Type: functional
Conditions: route intraperitoneal
Label scheme for inhibition in vivo at 50 mg/kg: lower than 70% is FALSE, 70% and above is TRUE.

smiles_text | cat
Cc1ccc(-c2cc(Cc3ccco3)c3c(ncn4c(=O)c5ccccc5nc34)n2)cc1 | FALSE
Cc1sc2ncn3c(=O)c4ccccc4nc3c2c1C | TRUE
O=c1c2cc(Br)ccc2nc2c3c(-c4ccc([N+](=O)[O-])cc4)cc(-c4ccc([N+](=O)[O-])cc4)nc3ncn12 | FALSE
O=c1c2cc(Br)cc(Br)c2nc2c3c(-c4ccccc4)cc(-c4ccc(Cl)cc4)nc3ncn12 | FALSE
Cc1ccc(-c2cc(-c3ccc(Cl)cc3)c3c(ncn4c(=O)c5cc(Br)cc(Br)c5nc34)n2)cc1 | TRUE
Cc1sc2ncn3c(=O)c4cc(Br)cc(Br)c4nc3c2c1C | FALSE
O=c1c2ccccc2nc2c3c4c(sc3ncn12)CCCC4 | TRUE

* * *

Test: Inhibition of PDE1
IC50 values for the molecules below.

smiles_text | IC50 [µM]
Cc1ccc(-c2cc(-c3ccccc3)nc3ncn4c(=O)c5ccccc5nc4c23)cc1 | 91.8
Cc1ccc(-c2cc(Cc3ccco3)c3c(ncn4c(=O)c5cc(Br)ccc5nc34)n2)cc1 | 72.5
O=c1c2ccccc2nc2c3c4c(sc3ncn12)CCCC4 | 228
Cc1ccc(-c2csc3ncn4c(=O)c5cc(Br)ccc5nc4c23)cc1 | 85.3
O=c1c2ccccc2nc2c3c(-c4ccc(Cl)cc4)csc3ncn12 | 124
Cc1ccc(-c2csc3ncn4c(=O)c5ccccc5nc4c23)cc1 | 230
COc1ccc(-c2cc(-c3ccccc3)nc3ncn4c(=O)c5cc(Br)cc(Br)c5nc4c23)cc1 | 33.7
COc1ccc(-c2csc3ncn4c(=O)c5cc(Br)cc(Br)c5nc4c23)cc1 | 60.5
Cc1sc2ncn3c(=O)c4cc(Br)cc(Br)c4nc3c2c1C | 95.7
COc1ccc(-c2csc3ncn4c(=O)c5ccccc5nc4c23)cc1 | 66.9

* * *

Documented pIC50 across a set of compounds
Test: Inhibition of PDE1
pIC50: −log10 of the molar value.
measurement_label: pIC50

smiles_text | measurement_label | reported
Cc1ccc(-c2cc(-c3ccc(Cl)cc3)c3c(ncn4c(=O)c5cc(Br)cc(Br)c5nc34)n2)cc1 | pIC50 | 4.24
O=c1c2cc(Br)cc(Br)c2nc2c3c(-c4ccc([N+](=O)[O-])cc4)cc(-c4ccc([N+](=O)[O-])cc4)nc3ncn12 | pIC50 | 4.14
CC(C)Cn1c(=O)n(C)c(=O)c2nc[nH]c21 | pIC50 | 4.61
Cc1ccc(-c2csc3ncn4c(=O)c5cc(Br)cc(Br)c5nc4c23)cc1 | pIC50 | 4.21
O=c1c2cc(Br)ccc2nc2c3c(-c4ccccc4)cc(-c4ccc(Cl)cc4)nc3ncn12 | pIC50 | 4.02
Cc1sc2ncn3c(=O)c4cc(Br)ccc4nc3c2c1C | pIC50 | 3.84
COc1ccc(-c2cc(-c3cccc([N+](=O)[O-])c3)c3c(ncn4c(=O)c5cc(Br)cc(Br)c5nc34)n2)cc1 | pIC50 | 4.14
Cc1ccc(-c2cc(Cc3ccco3)c3c(ncn4c(=O)c5ccccc5nc34)n2)cc1 | pIC50 | 4.25
COc1ccc(-c2cc(-c3ccccc3)nc3ncn4c(=O)c5ccccc5nc4c23)cc1 | pIC50 | 4.14
O=c1c2cc(Br)ccc2nc2c3c(-c4ccc([N+](=O)[O-])cc4)cc(-c4ccc([N+](=O)[O-])cc4)nc3ncn12 | pIC50 | 3.99
Cc1ccc(-c2cc(-c3ccc(Cl)cc3)c3c(ncn4c(=O)c5ccccc5nc34)n2)cc1 | pIC50 | 4.01
COc1ccc(-c2csc3ncn4c(=O)c5cc(Br)ccc5nc4c23)cc1 | pIC50 | 4.09
COc1ccc(-c2cc(-c3cccc([N+](=O)[O-])c3)c3c(ncn4c(=O)c5cc(Br)ccc5nc34)n2)cc1 | pIC50 | 4.00
O=c1c2cc(Br)cc(Br)c2nc2c3c4c(sc3ncn12)CCCC4 | pIC50 | 3.98
Cc1ccc(-c2cc(-c3ccccc3)nc3ncn4c(=O)c5cc(Br)ccc5nc4c23)cc1 | pIC50 | 4.11
COc1ccc(-c2cc(-c3cccc([N+](=O)[O-])c3)c3c(ncn4c(=O)c5ccccc5nc34)n2)cc1 | pIC50 | 4.40
O=c1c2cc(Br)ccc2nc2c3c(-c4ccc(Cl)cc4)csc3ncn12 | pIC50 | 4.04

* * *

Each entry below lists one item and its recorded inhibition in vivo at 50 mg/kg value.
Test system: Rattus norvegicus
Test: Antiinflammatory activity in Sprague-Dawley rat assessed as inhibition of carrageenan-induced paw edema at 50 mg/kg, ip treated 60 mins before carrageenan challenge measured after 180 mins
Format: functional
Conditions: route intraperitoneal
measurement_label: inhibition in vivo at 50 mg/kg (%)

smiles_text | reported
Cc1sc2ncn3c(=O)c4cc(Br)ccc4nc3c2c1C | 76
COc1ccc(-c2cc(-c3ccccc3)nc3ncn4c(=O)c5cc(Br)cc(Br)c5nc4c23)cc1 | 86
O=c1c2ccccc2nc2c3c(-c4ccc([N+](=O)[O-])cc4)cc(-c4ccc([N+](=O)[O-])cc4)nc3ncn12 | 23
O=c1c2cc(Br)ccc2nc2c3c4c(sc3ncn12)CCCC4 | 71
O=c1c2ccccc2nc2c3c(-c4ccccc4)cc(-c4ccc(Cl)cc4)nc3ncn12 | 34
O=c1c2cc(Br)cc(Br)c2nc2c3c(-c4ccc(Cl)cc4)csc3ncn12 | 17
O=c1c2cc(Br)cc(Br)c2nc2c3c4c(sc3ncn12)CCCC4 | 21

* * *

Test system: Rattus norvegicus
Experiment: Antiinflammatory activity in Sprague-Dawley rat assessed as inhibition of carrageenan-induced paw edema at 50 mg/kg, ip treated 60 mins before carrageenan challenge measured after 180 mins
Type: functional
Conditions: route intraperitoneal
Reported inhibition in vivo at 50 mg/kg values follow for various compounds
measurement_label: inhibition in vivo at 50 mg/kg

smiles_text | reported
Cc1ccc(-c2cc(-c3ccccc3)nc3ncn4c(=O)c5cc(Br)ccc5nc4c23)cc1 | 70%
COc1ccc(-c2csc3ncn4c(=O)c5cc(Br)ccc5nc4c23)cc1 | 70%
Cc1ccc(-c2cc(-c3ccccc3)nc3ncn4c(=O)c5cc(Br)cc(Br)c5nc4c23)cc1 | 72%
